# Species on record: Ovis aries
# ASSAY_NAME: Selectivity index, ratio of IC50 for sheep COX1 to IC50 for COX2
Catalogue of Ratio IC50 readings, one per entry.

{"MOLECULE_SMILES": "CC(=O)Nc1ccc(-c2cc(C(=O)O)c3cccc(C(=O)c4ccccc4)c3n2)cc1", "RESULT_OPERATOR": "=", "Ratio IC50": 115}
{"MOLECULE_SMILES": "CS(=O)(=O)c1ccc(-c2cc(C(=O)O)c3cc(C(=O)c4ccccc4)ccc3n2)cc1", "RESULT_OPERATOR": "=", "Ratio IC50": 317}
{"MOLECULE_SMILES": "CC(=O)Nc1ccc(-c2cc(C(=O)O)c3cc(C(=O)c4ccccc4)ccc3n2)cc1", "RESULT_OPERATOR": "=", "Ratio IC50": 256}
{"MOLECULE_SMILES": "[N-]=[N+]=Nc1ccc(-c2cc(C(=O)O)c3cccc(C(=O)c4ccccc4)c3n2)cc1", "RESULT_OPERATOR": "=", "Ratio IC50": 1150}
{"MOLECULE_SMILES": "[N-]=[N+]=Nc1ccc(-c2cc(C(=O)O)c3cc(C(=O)c4ccccc4)ccc3n2)cc1", "RESULT_OPERATOR": ">", "Ratio IC50": 1300}
{"MOLECULE_SMILES": "CS(=O)(=O)c1ccc(-c2cc(C(=O)O)c3cccc(C(=O)c4ccccc4)c3n2)cc1", "RESULT_OPERATOR": "=", "Ratio IC50": 231}
